# protocol description: Lipophilicity, logD of compound by shake flask method
# Assay type: physicochemical
# test context: octanol/water
result type: logD

P: C[C@H](Oc1ccc2ncc(/C=C/C(=O)O)c(C#N)c2c1)c1c(Cl)ccc(F)c1Cl
Q: C[C@H](Oc1ccc(NC(=O)CC(N)=O)c(C2CC2)c1)c1c(Cl)ccc(F)c1Cl
[in] Which numeric logD is bigger, that of P or that of Q ? Reply briefly: the label of your chosen item.
[out] Q

I: C[C@H](Oc1nccc(N(c2nc(C(=O)O)cs2)C2CC2)n1)c1c(Cl)ccc(F)c1Cl
II: C[C@H](Oc1ccnc(C2CC2)c1)c1c(Cl)ccc(F)c1Cl
[in] I need your help: which of the pair I , II has higher logD? Label of pick, please.
[out] II

----------
# protocol description: Lipophilicity, logD of compound by shake flask method
# Format: physicochemical
# test context: octanol/water
result type: logD

[in] Item under review: O=C(O)/C=C/c1cnc2ccc(O[C@@H](CO)c3c(Cl)cccc3Cl)cc2c1C1CC1 . Reported logD?
[out] 2

[in] # iterate: C[C@H](Oc1ccc2ncc(/C=C/C(=O)O)c(N(C)C)c2c1)c1c(Cl)ccc(F)c1Cl
[out] 3.6

[in] How about this compound: C[C@H](Oc1cccc(C2CC2)c1)c1c(Cl)ccc(F)c1Cl
[out] 5

1: Cc1c(/C=C/C(=O)O)ccc2ccc(O[C@@H](C)c3c(Cl)ccc(F)c3Cl)cc12
2: C[C@H](Oc1ccc2ncc(/C=C/C(=O)O)c(O)c2c1)c1c(Cl)ccc(F)c1Cl
[in] Between the entries labelled 1 and 2 , which has a larger logD value on record? Mark your selection by writing its label.
[out] 1

----------
# protocol description: Lipophilicity, logD of compound by shake flask method
# Format: physicochemical
# test context: octanol/water
result type: logD

Observe how each entry below is paired with its result.
[in] # logD lookup, item C[C@H](Oc1ccc2ncc(/C=C/C(=O)O)c(C3CC3)c2c1)c1c(Cl)ccc(F)c1Cl
[out] 4.1

[in] Queued: C[C@H](Oc1cccc(C2CC2)n1)c1c(Cl)ccc(F)c1Cl
[out] 4.9

[in] Repeat for the following compound: C[C@H](Oc1cc(CO)c2ncc(/C=C/C(=O)O)c(C3CC3)c2c1)c1c(Cl)ccc(F)c1Cl
[out] 2.9

[in] Here is the next compound: C[C@H](Oc1ccc2ccc(/C=C/c3nn[nH]n3)c(C3CC3)c2c1)c1c(Cl)cccc1Cl
[out] 4.3

[in] Here is the next compound: C[C@H](Oc1ccc2ncc(/C=C/C(=O)O)cc2c1)c1c(Cl)ccc(F)c1Cl
[out] 2.5

[in] Thanks! And C[C@H](Oc1ccc(/C=C/C(=O)O)c(CC2CC2)c1)c1c(Cl)ccc(F)c1Cl ?
[out] 3.9

[in] Now consider CC(Oc1ccc2ncc(/C=C/C(=O)O)cc2c1)C1CCCCC1 (stereo not drawn) and answer again.
[out] 3

[in] Would you mind doing C[C@H](Oc1ccc2ncc(/C=C/C(=O)NS(C)(=O)=O)c(C3CC3)c2c1)c1c(Cl)cccc1Cl as well?
[out] 2.9

[in] Request: C[C@H](Oc1ccc2ncc(/C=C/C(=O)O)c(C3CC3)c2c1)c1c(Cl)ccnc1Cl
[out] 2.3

[in] Please do the same for C[C@H](Oc1ccc2ncc(CCC(=O)O)c(C3CC3)c2c1)c1c(Cl)ccc(F)c1Cl as well.
[out] 4.1

I: C[C@H](Oc1ccc2nc(OCCN)c(CCC(=O)O)c(C3CC3)c2c1)c1c(Cl)ccc(F)c1Cl
II: C[C@H](Oc1ccc2ncc(/C=C/S(=O)(=O)O)c(C3CC3)c2c1)c1c(Cl)ccc(F)c1Cl
III: C[C@H](Oc1ccc2c(c1)c(C1CC1)c(/C=C/C(=O)O)c[n+]2[O-])c1c(Cl)ccc(F)c1Cl
IV: C[C@H](Oc1ccc2ncc(/C=C/C(=O)NC(CC(=O)O)CC(=O)O)c(C3CC3)c2c1)c1c(Cl)ccc(F)c1Cl
[in] List from greatest to least logD. Give the labels in the order requested.
[out] I, II, III, IV
(I: 3.8, II: 2.5, III: 1.7, IV: 0.4)
